Tested on: A549
experimentDescription: Cytotoxicity against human A549 cells after 48 hrs by SRB assay
Format: functional, cell-based
measurementConditions: Homo sapiens, A549, 48 h; read-out: GI50
parameter: GI50 (nM)
Numbers only, in nM.

Here is how some compounds turned out for GI50.
# querySmiles, GI50 (nM)
rows = [
    ("C/C=C1\\NC(=O)[C@H](Cc2ccccc2)NC(=O)[C@@H](C(C)C)NC(=O)[C@@H]([C@H](C)CC)NC(=O)[C@H](NC(=O)[C@H](NC(=O)[C@H](CCCN)NC(=O)[C@H]2CCCN2C(=O)[C@H](NC(=O)[C@@H](NC(=O)[C@@H](NC(=O)[C@H](NC(=O)CCCCCCCCCC)C(C)C)[C@@H](C)O)C(C)C)C(C)C)[C@H](C)CC)[C@H](C)OC(=O)[C@H](C(C)C)NC1=O", 160),
    ("C/C=C1\\NC(=O)[C@H](CCC2CCCCC2)NC(=O)[C@@H](C(C)C)NC(=O)[C@@H]([C@@H](C)CC)NC(=O)[C@H](NC(=O)[C@H](NC(=O)[C@H](CCCN)NC(=O)[C@H]2CCCN2C(=O)[C@H](NC(=O)[C@@H](NC(=O)[C@@H](NC(=O)[C@H](NC(=O)CCCC(C)C)C(C)C)[C@@H](C)O)C(C)C)C(C)C)[C@@H](C)CC)[C@@H](C)OC(=O)[C@H](C(C)C)NC1=O", 756),
    ("C/C=C1\\NC(=O)[C@H](Cc2ccccc2)NC(=O)[C@@H](C(C)C)NC(=O)[C@@H]([C@H](C)CC)NC(=O)[C@H](NC(=O)[C@H](NC(=O)[C@H](CCCN)NC(=O)[C@H]2CCCN2C(=O)[C@H](NC(=O)[C@@H](NC(=O)[C@@H](NC(=O)[C@@H](CCC(=O)O)NC(=O)CCCC(C)C)[C@@H](C)O)C(C)C)C(C)C)[C@H](C)CC)[C@H](C)OC(=O)[C@H](C(C)C)NC1=O", 3250),
    ("C/C=C1\\NC(=O)[C@H](Cc2ccc(-c3ccccc3)cc2)NC(=O)[C@@H](C(C)C)NC(=O)[C@@H]([C@H](C)CC)NC(=O)[C@H](NC(=O)[C@H](NC(=O)[C@H](CCCN)NC(=O)[C@H]2CCCN2C(=O)[C@H](NC(=O)[C@@H](NC(=O)[C@@H](NC(=O)[C@H](NC(=O)CCCC(C)C)C(C)C)[C@@H](C)O)C(C)C)C(C)C)[C@H](C)CC)[C@H](C)OC(=O)[C@H](C(C)C)NC1=O", 52.1),
]

Qu. Please give the documented GI50 of C/C=C1\NC(=O)[C@H](Cc2ccccc2)NC(=O)[C@@H](C(C)C)NC(=O)[C@@H]([C@H](C)CC)NC(=O)[C@H](NC(=O)[C@H](NC(=O)[C@H](CCCN)NC(=O)[C@H]2CCCN2C(=O)[C@H](NC(=O)[C@@H](NC(=O)[C@@H](NC(=O)[C@@H](NC(=O)CCCC(C)C)C(C)C)[C@@H](C)O)C(C)C)C(C)C)[C@H](C)CC)[C@H](C)OC(=O)[C@H](C(C)C)NC1=O
Ans. 1330

Taken from ChEMBL document CHEMBL1156597.
